The measurements presented in this section are drawn from patent US20260000781A1.

# target.system: surface-expressed CD73 on human T cells (Homo sapiens, UniProt P21589)
# Construct: 72400 (T cells); host or cells: human PBMCs / human T cells
# Sequence (P21589 27-549): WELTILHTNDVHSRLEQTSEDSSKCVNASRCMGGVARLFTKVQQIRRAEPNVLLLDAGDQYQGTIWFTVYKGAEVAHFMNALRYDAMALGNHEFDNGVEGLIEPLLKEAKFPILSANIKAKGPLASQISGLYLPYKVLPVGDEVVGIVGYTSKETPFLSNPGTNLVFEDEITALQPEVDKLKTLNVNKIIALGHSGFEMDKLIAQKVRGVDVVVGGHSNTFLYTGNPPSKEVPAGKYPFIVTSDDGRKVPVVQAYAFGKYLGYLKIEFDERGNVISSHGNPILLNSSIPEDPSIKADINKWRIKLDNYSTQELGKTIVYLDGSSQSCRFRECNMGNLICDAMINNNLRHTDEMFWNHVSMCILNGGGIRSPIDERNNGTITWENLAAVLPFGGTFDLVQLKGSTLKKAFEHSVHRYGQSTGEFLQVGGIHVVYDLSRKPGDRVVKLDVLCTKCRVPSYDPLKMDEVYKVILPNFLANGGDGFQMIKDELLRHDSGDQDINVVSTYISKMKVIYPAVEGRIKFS
# method.summary: Human immune cell-based CD73 enzyme inhibition assay (T cells)
# conditions.used: T Cells - Experiment 1, AMP 300 μM, 2.5-3 h
pIC50: −log10 of the molar value.

# molecule, pIC50
measured = [
    ("O=C(CCOCCOCCOCCOCCn1cc(COCCOCCOCCOCCOC2CCC3(CC2)CN(c2nc(Cl)nc4c2cnn4[C@@H]2O[C@H](COCP(=O)(O)O)[C@@H](O)[C@H]2O)C3)nn1)Oc1c(F)cc(F)cc1F", 8.83),
]

----------
# System: human PBMCs inhibited by AMP
# method.summary: PBMC activation assay by flow cytometry (rescue of AMP suppressed cells)
# Format: cell-based
# conditions.used: read-out: EC50 [nM] (median, n = 3) CD8+Granzyme B+; 30 μM AMP, 72 h
recorded.metric: EC50 (nM)

# molecule, target.system, recorded.result
rows = [
    ("COC[C@](CO)(OC[C@H]1O[C@@H](n2ncc3c(NC4CCCC4)nc(Cl)nc32)[C@H](O)[C@@H]1O)P(=O)(O)O", "human PBMCs inhibited by AMP", 8),
]

----------
# target.system: CD73 on human PBMCs (Homo sapiens)
# Construct: 72400 (T cells); host or cells: human PBMCs / human T cells
# method.summary: CD73 enzyme inhibition assay with human PBMCs (PiColorLock)
# Format: cell-based
# conditions.used: read-out: 3 h median IC50 [nM] (range); three unique PBMC donors, AMP 100 μM, 3 h
Attribute: IC50
recorded.metric: IC50 (nM)

# molecule, recorded.metric, recorded.result
data = [
    ("COC[C@](CO)(OC[C@H]1O[C@@H](n2ncc3c(NC4CCCC4)nc(Cl)nc32)[C@H](O)[C@@H]1O)P(=O)(O)O", "IC50", 0.07),
    ("O=P(O)(O)COC[C@H]1O[C@@H](n2ncc3c(N4CC5(CCc6ccccc65)C4)nc(Cl)nc32)[C@H](O)[C@@H]1O", "IC50", 1.45),
]

----------
# target.system: CD73 expressed on the MDA-MB-231 cell surface (Homo sapiens)
# Construct: host or cells: MDA-MB-231
# method.summary: Cell-based CD73 enzyme inhibition assay on MDA-MB-231 cells
# conditions.used: AMP 400 μM, 3 h (FIG. 3)
pIC50: −log10 of the molar value.
Attribute: pIC50

# compound, pIC50
records = [
    ("COC[C@](CO)(OC[C@H]1O[C@@H](n2ncc3c(NC4CCCC4)nc(Cl)nc32)[C@H](O)[C@@H]1O)P(=O)(O)O [OP-5244]", 9.51),
    ("O=P(O)(O)COC[C@H]1O[C@@H](n2ncc3c(N4CC5(CCc6ccccc65)C4)nc(Cl)nc32)[C@H](O)[C@@H]1O [SHR170008]", 8.31),
]

----------
# System: human PBMCs inhibited by AMP
# method.summary: PBMC activation assay by flow cytometry (rescue of AMP suppressed cells)
# Type: cell-based
# conditions.used: read-out: 30 μM AMP EC50; batches of Conjugate 172c, CD25+ as a read-out, 72 h (Table 13)
recorded.metric: EC50

# molecule, recorded.result
records = [
    ("COC[C@](CO)(OC[C@H]1O[C@@H](n2ncc3c(NC4CCCC4)nc(Cl)nc32)[C@H](O)[C@@H]1O)P(=O)(O)O", "17 nM"),
]

----------
# target.system: surface-expressed CD73 on human PBMCs (Homo sapiens, UniProt P21589)
# Construct: 72400 (T cells)
# method.summary: Human immune cell-based CD73 enzyme inhibition assay (PBMCs)
# conditions.used: AMP 300 μM, 2.5-3 h
Attribute: IC50
recorded.metric: IC50 (nM)

# molecule, unit.info, recorded.result
records = [
    ("COC[C@](CO)(OC[C@H]1O[C@@H](n2ncc3c(NC4CCCC4)nc(Cl)nc32)[C@H](O)[C@@H]1O)P(=O)(O)O", "nM", 0.02),
    ("O=C(CCOCCOCCOCCOCCn1cc(COCCOCCOCCOCCOC2CCC3(CC2)CN(c2nc(Cl)nc4c2cnn4[C@@H]2O[C@H](COCP(=O)(O)O)[C@@H](O)[C@H]2O)C3)nn1)Oc1c(F)cc(F)cc1F", "nM", 2.87),
]

----------
# target.system: CD73 on 4T1 mouse cells (Mus musculus, UniProt Q61503)
# Construct: host or cells: 4T1
# method.summary: CD73 enzyme inhibition assay with mouse 4T1 cells (PiColorLock)
# Format: cell-based
# conditions.used: 3 h IC50 [nM], 4T1 cancer cells, AMP 100 μM, 3 h
recorded.metric: IC50 (nM)

# molecule, recorded.metric, recorded.result
records = [
    ("C[C@H](Nc1cc(Cl)nc2c1cnn2[C@@H]1O[C@H](COP(=O)(O)CP(=O)(O)O)[C@@H](O)[C@H]1O)c1ccccc1F", "IC50", 6.79),
]

----------
# Tested on: human PBMCs inhibited by AMP
# method.summary: PBMC activation assay by flow cytometry (rescue of AMP suppressed cells)
# Format: cell-based
# conditions.used: Homo sapiens, PBMC; 30 μM AMP, 72 h; read-out: CD8+granzyme B+ EC50

# molecule, EC50
records = [
    ("C[C@H](Nc1cc(Cl)nc2c1cnn2[C@@H]1O[C@H](COP(=O)(O)CP(=O)(O)O)[C@@H](O)[C@H]1O)c1ccccc1F [AB680]", "1.4 nM"),
]

----------
Attribute: pIC50
# target.system: CD73 (Homo sapiens, UniProt P21589)
# method.summary: Cell-free CD73 enzyme inhibition assay
# Assay type: biochemical
# conditions.used: recombinant human CD73 0.1 ng/μL, AMP 100 μM, 25 min at 37° C. (FIG. 1A, 1B)
pIC50: −log10 of the molar value.

# molecule, target.system, pIC50
measured = [
    ("COC[C@](CO)(OC[C@H]1O[C@@H](n2ncc3c(NC4CCCC4)nc(Cl)nc32)[C@H](O)[C@@H]1O)P(=O)(O)O", "CD73 (Homo sapiens, UniProt P21589)", 8.89),
    ("O=P(O)(O)COC[C@H]1O[C@@H](n2ncc3c(N4CC5(CCc6ccccc65)C4)nc(Cl)nc32)[C@H](O)[C@@H]1O", "CD73 (Homo sapiens, UniProt P21589)", 8.39),
    ("C#CCOCCOCCOCCOCCOC1CCC2(CC1)CN(c1nc(Cl)nc3c1cnn3[C@@H]1O[C@H](COCP(=O)(O)O)[C@@H](O)[C@H]1O)C2", "CD73 (Homo sapiens, UniProt P21589)", 7.58),
]

----------
# Test system: human T cells
# method.summary: Rescue of T cell activation in the presence of AMP
# Format: cell-based
# conditions.used: 100 μM AMP, CD25, 72 h

# molecule, EC50 / nM
data = [
    ("COC[C@](CO)(OC[C@H]1O[C@@H](n2ncc3c(NC4CCCC4)nc(Cl)nc32)[C@H](O)[C@@H]1O)P(=O)(O)O", 8.37),
]

----------
# target.system: CD73 on EMT6 mouse mammary carcinoma cells (Mus musculus)
# Construct: host or cells: EMT6
# Sequence (Q61503 29-551): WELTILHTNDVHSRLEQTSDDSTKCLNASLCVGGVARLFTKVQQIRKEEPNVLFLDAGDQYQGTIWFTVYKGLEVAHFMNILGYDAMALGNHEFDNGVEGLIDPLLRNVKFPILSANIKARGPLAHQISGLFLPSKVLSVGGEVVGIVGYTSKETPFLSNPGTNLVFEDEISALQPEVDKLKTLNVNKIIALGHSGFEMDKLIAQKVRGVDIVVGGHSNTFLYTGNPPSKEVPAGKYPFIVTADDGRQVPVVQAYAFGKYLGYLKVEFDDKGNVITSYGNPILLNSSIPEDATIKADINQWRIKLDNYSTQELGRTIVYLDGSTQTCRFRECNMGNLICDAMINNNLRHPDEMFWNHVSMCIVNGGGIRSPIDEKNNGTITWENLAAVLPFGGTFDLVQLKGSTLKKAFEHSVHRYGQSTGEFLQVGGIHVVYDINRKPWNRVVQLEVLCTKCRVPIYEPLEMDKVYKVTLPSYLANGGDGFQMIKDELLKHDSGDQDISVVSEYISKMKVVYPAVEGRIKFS
# method.summary: CD73 enzyme inhibition assay with mouse EMT6 cells (PiColorLock)
# Type: cell-based
# conditions.used: 3 h IC50 [nM], mouse EMT6 cancer cells, AMP 100 μM, 3 h
recorded.metric: IC50

# molecule, target.system, recorded.result
records = [
    ("C[C@H](Nc1cc(Cl)nc2c1cnn2[C@@H]1O[C@H](COP(=O)(O)CP(=O)(O)O)[C@@H](O)[C@H]1O)c1ccccc1F", "CD73 on EMT6 mouse mammary carcinoma cells (Mus musculus)", "1.06 nM"),
]
